procedure_text: Cell growth assay, WST-8 (compounds B1-B126)
Format: cell-based
experimental_parameters: 96 h; T47D cell line, WST-8, 4 days; read-out: Cell growth inhibition in T47D cell line IC50
pIC50: −log10 of the molar value.
recorded_endpoint: pIC50

These recorded examples may help you get a feel for the data.
C[C@@H]1Cc2c(ccc3[nH]ncc23)[C@@H](c2c(F)cc(C3CCN(C(=O)CN4CCN5c6cc7c(cc6OC[C@@H]5C4)C(=O)N(C4CCC(=O)NC4=O)C7)CC3)cc2F)N1CC(F)F (some centres unmarked) | > 9.00
C[C@@H]1Cc2c(ccc3[nH]ncc23)[C@@H](c2c(F)cc(N3CCC4(CN(CC(=O)N5CCN6c7cc8c(cc7OC[C@@H]6C5)C(=O)N(C5CCC(=O)NC5=O)C8)C4)C3)cc2F)N1CC(F)F (some centres unmarked) | > 9.00
C[C@@H]1Cc2c(ccc3[nH]ncc23)[C@@H](c2ccc(N3CC4(CCC(CN5CCN6c7cc8c(cc7OC[C@@H]6C5)C(=O)N(C5CCC(=O)NC5=O)C8)CC4)C3)cn2)N1CC(F)F (some centres unmarked) | 8.00 to 9.00

Go through the list and state pIC50 for each entry.
1. C[C@@H]1Cc2c(ccc3[nH]ncc23)[C@@H](c2c(F)cc(N3CC4(CCN(CC(=O)N5CCN6c7cc8c(cc7OC[C@@H]6C5)C(=O)N(C5CCC(=O)NC5=O)C8)CC4)C3)cc2F)N1CC(F)F (some centres unmarked)
2. C[C@@H]1Cc2c(ccc3[nH]ncc23)[C@@H](c2ccc(N3CCC4(CC3)CC(CN3CCN5c6ccc(C(=O)N[C@H]7CCC(=O)NC7=O)nc6OC[C@H]5C3)C4)cn2)N1CC(F)(F)F

A.
1: > 9.00; 2: < 8.00

====

target_or_system: ER (Homo sapiens, UniProt P03372)
Construct: endogenous in cells; probably T47D or MCF-7
Sequence (P03372 1-595): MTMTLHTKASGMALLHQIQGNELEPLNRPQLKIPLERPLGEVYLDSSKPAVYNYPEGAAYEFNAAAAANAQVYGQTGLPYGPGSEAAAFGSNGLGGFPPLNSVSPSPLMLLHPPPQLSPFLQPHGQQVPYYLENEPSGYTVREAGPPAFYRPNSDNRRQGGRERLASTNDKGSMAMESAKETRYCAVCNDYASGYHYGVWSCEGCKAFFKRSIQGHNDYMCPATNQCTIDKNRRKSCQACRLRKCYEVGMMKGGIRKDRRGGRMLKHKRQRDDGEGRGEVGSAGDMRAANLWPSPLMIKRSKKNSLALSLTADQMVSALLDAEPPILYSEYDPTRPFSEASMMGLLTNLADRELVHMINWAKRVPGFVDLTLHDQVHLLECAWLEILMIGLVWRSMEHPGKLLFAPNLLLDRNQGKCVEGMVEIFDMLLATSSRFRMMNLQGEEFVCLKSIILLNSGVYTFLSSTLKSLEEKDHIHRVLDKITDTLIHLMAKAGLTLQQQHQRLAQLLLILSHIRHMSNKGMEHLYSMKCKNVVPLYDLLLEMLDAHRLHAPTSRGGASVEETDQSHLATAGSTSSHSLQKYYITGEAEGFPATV
procedure_text: In-cell western blot analysis, relative ER percentage (compounds B1-B126)
Assay type: cell-based
experimental_parameters: ER degradation, 16 hours, read-out: ICW DC50
Answer each item with its documented DC50.

C[C@@H]1Cc2c(ccc3[nH]ncc23)[C@@H](c2ccc(N3CCC4(CC3)CC(CN3CCN5c6ccc(C(=O)N[C@H]7CCC(=O)NC7=O)nc6OC[C@H]5C3)CO4)cn2)N1CC(F)(F)F (stereo partly shown) | 10 to 100 nM
C[C@@H]1Cc2c(ccc3[nH]ncc23)[C@@H](c2ccc(N3CC4(CCC(CN5CCC6(CCOc7c6ccc6c7CN(C7CCC(=O)NC7=O)C6=O)CC5)CC4)C3)cn2)N1CC(F)(F)F (stereo partly shown) | > 100 nM
C[C@@H]1Cc2c(ccc3[nH]ncc23)[C@@H](c2cnc(N3CCC4(CC3)CC(CN3CCN5c6cc7c(cc6OC[C@@H]5C3)C(=O)N(C3CCC(=O)NC3=O)C7)C4)nc2)N1CC(F)(F)F (stereo partly shown) | < 10 nM
C[C@@H]1Cc2c(ccc3[nH]ncc23)[C@@H](c2c(F)cc(NC3CN(CC(=O)N4CCN5c6cc7c(cc6OC[C@@H]5C4)C(=O)N(C4CCC(=O)NC4=O)C7)C3)cc2F)N1CC(F)F (stereo partly shown) | 10 to 100 nM
C[C@@H]1Cc2c(ccc3[nH]ncc23)[C@@H](c2ccc(N3CCC(CN4CCN5c6ccc(C(=O)N[C@H]7CCC(=O)NC7=O)nc6OC[C@H]5C4)CC3)cn2)N1CC(F)(F)F | 10 to 100 nM

Give measured DC50 for every item shown.
1. C[C@@H]1Cc2c(ccc3[nH]ncc23)[C@@H](c2ccc(N3CCC4(CCN(CC(=O)N5Cc6cc7c(cc6C5)C(=O)N(C5CCC(=O)NC5=O)C7)CC4)CC3)cn2)N1CC(F)(F)F (stereo partly shown)
2. C[C@@H]1Cc2c(ccc3[nH]ncc23)[C@@H](c2c(F)cc(N3CCC4(CCN(C(=O)CN5CCN6c7cc8c(cc7OC[C@@H]6C5)C(=O)N(C5CCC(=O)NC5=O)C8)CC4)C3)cc2F)N1CC(F)F (stereo partly shown)

A.
1: < 10 nM; 2: < 10 nM

====

procedure_text: Cell growth assay, WST-8 (compounds B1-B126)
Type: cell-based
experimental_parameters: 96 h; T47D cell line, WST-8, 4 days; read-out: Cell growth inhibition in T47D cell line IC50
recorded_endpoint: IC50

Reference set (2 entries):
C[C@@H]1Cc2c(ccc3[nH]ncc23)[C@@H](c2ccc(N3CC4(CCC(CN5CCC6(CCOc7c6ccc6c7CN(C7CCC(=O)NC7=O)C6=O)CC5)CC4)C3)cn2)N1CC(F)(F)F (stereo partly drawn) | < 1 nM
C[C@@H]1Cc2c(ccc3[nH]ncc23)[C@@H](c2ccc(N3CCC4(CC3)CN(C(=O)CN3CCC5(CC3)COc3c5ccc5c3CN(C3CCC(=O)NC3=O)C5=O)C4)cn2)N1CC(F)(F)F (stereo partly drawn) | < 1 nM

Q. Fill in: IC50 of C[C@@H]1Cc2c(ccc3[nH]ncc23)[C@@H](c2ccc(N3CC4(CCC(CN5CCN6c7cc8c(cc7N(C)C[C@@H]6C5)C(=O)N(C5CCC(=O)NC5=O)C8)CC4)C3)cn2)N1CC(F)(F)F (stereo partly drawn) is ___
A. 1 to 10 nM
